Values were extracted from ChEMBL document CHEMBL1136943.

In this section, each of the compounds is paired with its reported solubility.
test: Aqueous solubility by lyophilization solubility assay; assay type: physicochemical

Examples from the recorded data:
{"compound": "CO/C(C)=C1/NC(=O)[C@H]([C@@H](C)O)NC(=O)c2csc(n2)-c2cc(O)c(-c3nc(C(=O)NCCCN4CCOCC4)cs3)nc2-c2csc(n2)[C@@H]2COC(=O)c3c4c5c(cccc5n3O)COC(=O)[C@@H](O[C@H]3C[C@](C)(O)[C@H](N(C)C)[C@H](C)O3)[C@@H](OC4)[C@H](NC(=O)c3csc1n3)c1nc(cs1)C(=O)N2.O=C(O)C(F)(F)F", "solubility": "> 10000 µg/mL"}
{"compound": "CO/C(C)=C1/NC(=O)[C@H]([C@@H](C)O)NC(=O)c2csc(n2)-c2cc(O)c(-c3nc(C(=O)NCCN)cs3)nc2-c2csc(n2)[C@@H]2COC(=O)c3c4c5c(cccc5n3O)COC(=O)[C@@H](O[C@H]3C[C@](C)(O)[C@H](N(C)C)[C@H](C)O3)[C@@H](OC4)[C@H](NC(=O)c3csc1n3)c1nc(cs1)C(=O)N2.O=C(O)C(F)(F)F", "solubility": "> 10000 µg/mL"}

Next:
solubility recorded for this compound, CO/C(C)=C1/NC(=O)[C@H]([C@@H](C)O)NC(=O)c2csc(n2)-c2cc(O)c(-c3nc(C(=O)NCCNCC(O)CO)cs3)nc2-c2csc(n2)[C@@H]2COC(=O)c3c4c5c(cccc5n3O)COC(=O)[C@@H](O[C@H]3C[C@](C)(O)[C@H](N(C)C)[C@H](C)O3)[C@@H](OC4)[C@H](NC(=O)c3csc1n3)c1nc(cs1)C(=O)N2.O=C(O)C(F)(F)F (stereo partly drawn) , is 10000 µg/mL
